# Test system: OVCAR-5 ovarian
# Assay: NCI tumour cell line growth inhibition, 48 h
Measurement kind: TGI

# Compound, Measured on, TGI
rows = [
    ("C[C@@]1(O)CC[C@]2(C)C3CCCC3[C@H]12 (stereo not given in full)", "OVCAR-5 ovarian", "> 100 µM"),
    ("COc1cc2c(/C=C3/C(=O)Nc4cccc(Cl)c43)c(Cl)[nH]c2cc1C", "OVCAR-5 ovarian", "14.8 µM"),
    ("CC(=O)Nc1cc2ccc(=O)oc2cc1Cl", "OVCAR-5 ovarian", "> 100 µM"),
    ("NC(N)=NS(=O)(=O)c1ccc(N=Nc2c(O)c(C(=O)O)cc3ccccc23)cc1", "OVCAR-5 ovarian", "> 100 µM"),
]

Pending compound:
Quick one: TGI for "O=C1c2cccc3cc([N+](=O)[O-])cc(c23)C(=O)N1Nc1ccc([N+](=O)[O-])cc1[N+](=O)[O-]" ?
> 100 µM

Origin of values: PubChem BioAssay (NCI)
